Values compiled from ChEMBL document CHEMBL3616377.

Tested on: LNCaP
Assay: Cytotoxicity against human LNCAP cells after 48 hrs by MTT assay in absence of 10% FBS
Type: functional, cell-based
Measured IC50 of individual entries
assay-endpoint: IC50

>>> value_reported("O=C(NCc1ccccc1)c1csc(-c2c[nH]c3ccccc23)n1")
"> 100 µM"
>>> value_reported("COc1ccc(NC(=O)c2csc(-c3cn(Cc4ccc(Cl)cc4)c4ccccc34)n2)cc1")
"> 100 µM"
>>> value_reported("COc1cc(NC(=O)c2csc(-c3c[nH]c4ccc(F)cc34)n2)cc(OC)c1OC")
"> 100 µM"
>>> value_reported("COc1ccc2[nH]cc(-c3nc(C(=O)Nc4cc(OC)c(OC)c(OC)c4)cs3)c2c1")
"> 100 µM"
>>> value_reported("Cc1ccc(NC(=O)c2csc(-c3c[nH]c4ccccc34)n2)cc1")
"> 100 µM"
>>> value_reported("COc1cccc2c1C(=O)c1c(O)c3c(c(O)c1C2=O)C[C@@](O)(C(=O)CO)C[C@@H]3O[C@H]1C[C@H](N)[C@H](O)[C@H](C)O1")
"6.46 µM"
>>> value_reported("O=C(Nc1ccccc1)c1csc(-c2c[nH]c3ccccc23)n1")
"> 100 µM"
>>> value_reported("COc1ccc(NC(=O)c2csc(-c3c[nH]c4ccc(F)cc34)n2)cc1")
"66.4 µM"
>>> value_reported("O=C(Nc1ccccc1)c1csc(-c2cn(Cc3ccc(Cl)cc3)c3ccccc23)n1")
"64.1 µM"
>>> value_reported("COc1cc(NC(=O)c2csc(-c3cn(Cc4ccc(Cl)cc4)c4ccccc34)n2)cc(OC)c1OC")
"97.7 µM"
>>> value_reported("COc1cc(NC(=O)c2csc(-c3c[nH]c4ccc(Br)cc34)n2)cc(OC)c1OC")
"> 100 µM"
